Here the recorded K0.5-mut/K0.5-wt (against Catalyst Biosciences WT FIXa) is given for each entry.
- Study target: plasma purified human AT-III (antithrombin III), in complex with full-length unfractionated heparin (AT-III/UFH)
Observable: K0.5-mut/K0.5-wt (against Catalyst Biosciences WT FIXa)

Protein: FIXa-R318Y/R338E/E410N/T412V (protein) chain 1: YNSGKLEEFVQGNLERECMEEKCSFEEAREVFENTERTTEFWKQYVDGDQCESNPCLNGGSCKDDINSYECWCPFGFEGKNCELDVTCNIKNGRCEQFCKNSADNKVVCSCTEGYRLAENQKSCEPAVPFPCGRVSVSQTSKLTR chain 2: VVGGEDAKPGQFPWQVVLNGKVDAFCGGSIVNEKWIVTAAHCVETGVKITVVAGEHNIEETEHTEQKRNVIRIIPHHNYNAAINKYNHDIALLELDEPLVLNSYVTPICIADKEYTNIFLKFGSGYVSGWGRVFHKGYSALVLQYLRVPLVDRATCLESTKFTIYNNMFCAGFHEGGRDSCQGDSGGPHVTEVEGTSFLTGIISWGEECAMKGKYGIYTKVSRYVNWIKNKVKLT
Val: > 517

Protein: FIXa-K247N/N249S/R318Y/R338E/R403E/E410N (protein) chain 1: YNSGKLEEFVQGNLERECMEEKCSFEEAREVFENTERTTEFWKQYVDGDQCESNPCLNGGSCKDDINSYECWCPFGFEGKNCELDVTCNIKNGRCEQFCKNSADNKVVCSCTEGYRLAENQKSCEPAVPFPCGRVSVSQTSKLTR chain 2: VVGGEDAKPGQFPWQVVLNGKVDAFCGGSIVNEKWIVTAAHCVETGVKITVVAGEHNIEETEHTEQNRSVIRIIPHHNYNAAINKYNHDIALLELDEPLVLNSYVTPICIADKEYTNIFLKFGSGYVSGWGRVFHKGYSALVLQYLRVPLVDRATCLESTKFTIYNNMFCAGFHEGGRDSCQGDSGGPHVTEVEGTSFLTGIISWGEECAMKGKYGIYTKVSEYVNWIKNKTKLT
Val: 418
